Hey, just so you know, these numbers are from patent US20250313574A1.

target: Recombinant Human Siglec-3/CD33 protein (His-CD33) (Homo sapiens (Human), UniProt P20138); test: Differential scanning fluorimetry (DSF) thermal shift assay; assay type: binding; conditions: difference in thermal melt of CD33 protein (0.5 μM) with 50 μM compound
Sequence (P20138 18-259): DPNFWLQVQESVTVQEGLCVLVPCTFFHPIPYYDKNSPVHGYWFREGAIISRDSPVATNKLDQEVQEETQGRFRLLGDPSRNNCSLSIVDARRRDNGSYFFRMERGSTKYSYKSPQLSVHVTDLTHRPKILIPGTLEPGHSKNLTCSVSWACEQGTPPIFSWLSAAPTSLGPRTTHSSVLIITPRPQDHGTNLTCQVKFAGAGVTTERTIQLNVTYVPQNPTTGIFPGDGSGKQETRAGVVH
Property Label: DSF (dTmD) (°C)

[
  {
    "Compound": "CC(=O)N[C@H]1[C@H]([C@H](O)[C@H](O)CNC(=O)c2cc(C)c(O)c(C)c2)O[C@@](CC(O)[C@@H](O)c2cccc(NC(=O)CC(C)(C)C)c2)(C(=O)O)C[C@@H]1O (stereo partly drawn)",
    "DSF (dTmD) [°C]": 3.9
  }
]

A = CC(=O)N[C@H]1[C@H]([C@H](O)[C@H](O)CNC(=O)c2cc(C)c(O)c(C)c2)O[C@@](C/C=C/c2cccc(CNC(=O)c3ccc4[nH]c(-c5c[nH]c6ccccc56)cc4c3)c2)(C(=O)O)C[C@@H]1O
B = CC(=O)N[C@H]1[C@H]([C@H](O)[C@H](O)CNC(=O)c2cc(C)c(O)c(C)c2)O[C@@](C/C=C/c2cccc(CNC(=O)C3CCC(Nc4ccc(C(N)=O)cn4)CC3)c2)(C(=O)O)C[C@@H]1O (stereo partly drawn)
Req: Form field 'greater DSF (dTmD)' accepts A or B ; which applies? Pick one; state its label.
Resp: A

I = CC(=O)N[C@H]1[C@H]([C@H](O)[C@H](O)CNC(=O)c2cc(C)c(O)c(C)c2)O[C@@](C/C=C/c2cccc(CNC(=O)c3ccc4[nH]ccc4c3)c2)(C(=O)O)C[C@@H]1O [A-242]
II = Cc1cc(C(=O)NC[C@@H](O)[C@@H](O)[C@@H]2O[C@@](C/C=C/c3cccc(CNC(=O)c4ccc5[nH]cnc5c4)c3)(C(=O)O)C[C@H](O)[C@H]2NC(=O)Cn2cc(C3CCCCC3)nn2)cc(C)c1O
Req: Form field 'greater DSF (dTmD)' accepts I or II ; which applies? Pick one; state its label.
Resp: I
(I: 7.6 °C, II: 3.8 °C)

----------
molecular target: Recombinant human CD33 protein (Homo sapiens (Human), UniProt P20138); assay: CD33 competitive binding assay for HTS drug screen (fluorescent multivalent sialic acid probe)
pEC50: −log10 of the molar value.
Property Label: pEC50

[
  {
    "Compound": "CC(=O)N[C@H]1[C@H]([C@H](O)[C@H](O)CNC(=O)c2ccc3nsnc3c2)O[C@@](CCN2CCOC[C@@]23CCN(C(=O)OC(C)(C)C)C3)(C(=O)O)C[C@@H]1O",
    "Tested On": "Recombinant human CD33 protein (Homo sapiens (Human), UniProt P20138)",
    "pEC50": 6.71
  },
  {
    "Compound": "CC(=O)N[C@H]1[C@H]([C@H](O)[C@H](O)CNC(=O)c2cnc3[nH]ncc3c2)O[C@@](CCN2CCOC[C@@]23CCN(C(=O)OC(C)(C)C)C3)(C(=O)O)C[C@@H]1O",
    "Tested On": "Recombinant human CD33 protein (Homo sapiens (Human), UniProt P20138)",
    "pEC50": 7.30
  },
  {
    "Compound": "CC(=O)N[C@H]1[C@H]2O[C@](C(=O)O)(C/C=C/CCC[C@@H](NC(=O)[C@@H]3CCCOC3)c3cccc(c3)COc3c(C)cc(cc3C)C(=O)NC[C@@H](O)[C@H]2O)C[C@@H]1O",
    "Tested On": "Recombinant human CD33 protein (Homo sapiens (Human), UniProt P20138)",
    "pEC50": 4.56
  },
  {
    "Compound": "CC(=O)N[C@H]1[C@H]([C@H](O)[C@H](O)CNC(=O)c2cc(C)c(O)c(C)c2)O[C@@](C/C=C/c2cccc(CNC(=O)C3CCCC(Nc4ccc(C)cn4)C3)c2)(C(=O)O)C[C@@H]1O (stereo partly shown)",
    "Tested On": "Recombinant human CD33 protein (Homo sapiens (Human), UniProt P20138)",
    "pEC50": 5.24
  },
  {
    "Compound": "CC(=O)N[C@H]1[C@H]([C@H](O)[C@H](O)CNC(=O)c2cc(C)c(O)c(C)c2)O[C@@](CCN2CCN(C(C)=O)C[C@@]23CCN(C(=O)OC(C)(C)C)C3)(C(=O)O)C[C@@H]1O",
    "Tested On": "Recombinant human CD33 protein (Homo sapiens (Human), UniProt P20138)",
    "pEC50": 7.72
  },
  {
    "Compound": "CC(=O)N[C@H]1[C@H]([C@H](O)[C@H](O)CNC(=O)c2cc(C)c(O)c(C)c2)O[C@@](C[C@@H]2COC[C@]3(CCN(C(=O)OC(C)(C)C)C3)N2)(C(=O)O)C[C@@H]1O [A-225]",
    "Tested On": "Recombinant human CD33 protein (Homo sapiens (Human), UniProt P20138)",
    "pEC50": 6.26
  },
  {
    "Compound": "CC(=O)N[C@H]1[C@H]([C@H](O)[C@H](O)CNC(=O)c2cc(C)c(O)c(C)c2)O[C@@](CCN2CCOC[C@@]23CCN(C(=O)c2ccco2)C3)(C(=O)O)C[C@@H]1O",
    "Tested On": "Recombinant human CD33 protein (Homo sapiens (Human), UniProt P20138)",
    "pEC50": 6.05
  },
  {
    "Compound": "CC(=O)N[C@H]1[C@H]([C@H](O)[C@H](O)CNC(=O)c2cc(C)c(O)c(C)c2)O[C@@](CCN2CCOC[C@@]23CCN(C(=O)NCc2ccccc2)C3)(C(=O)O)C[C@@H]1O",
    "Tested On": "Recombinant human CD33 protein (Homo sapiens (Human), UniProt P20138)",
    "pEC50": 6.82
  }
]

P = CC(=O)N[C@H]1[C@H]([C@H](O)[C@H](O)CNC(=O)c2cc(C)c(O)c(C)c2)O[C@@](C/C=C/c2cccc(CNC(=O)c3ccc4[nH]c(CCO)cc4c3)c2)(C(=O)O)C[C@@H]1O
Q = CC(=O)N[C@H]1[C@H]([C@H](O)[C@H](O)CNC(=O)c2cc(C(F)(F)F)cc(C(F)(F)F)c2)O[C@@](CCN2CCOC[C@@]23CCN(C(=O)OC(C)(C)C)C3)(C(=O)O)C[C@@H]1O
Req: Form field 'greater pEC50' accepts P or Q ; which applies? Pick one; state its label.
Resp: P

1 = CC(=O)N[C@H]1[C@H]([C@H](O)[C@H](O)CNC(=O)c2cc(C)c(O)c(C)c2)O[C@@](CCN2CCC[C@]23CCN(C(=O)OC(C)(C)C)C3)(C(=O)O)C[C@@H]1O
2 = Cc1cc(C(=O)NC[C@@H](O)[C@@H](O)[C@@H]2O[C@@](C/C=C/c3cccc(CNC(=O)c4ccon4)c3)(C(=O)O)C[C@H](O)[C@H]2NC(=O)Cn2cc(C3CCCCC3)nn2)cc(C)c1O
3 = CC(=O)Nc1ccc(C(=O)NC[C@@H](O)[C@@H](O)[C@@H]2O[C@@](CCN3CCOC[C@@]34CCN(C(=O)OC(C)(C)C)C4)(C(=O)O)C[C@H](O)[C@H]2NC(C)=O)cc1
4 = Cc1cc2cc(C)c1OCCOC[C@@H](NC(=O)C1CCCOC1)COC/C=C/C[C@]1(C(=O)O)C[C@H](O)[C@@H](NC(=O)Cn3cc(C4CCCCC4)nn3)[C@@H](O1)[C@H](O)[C@H](O)CNC2=O (stereo partly shown) [A-341]
5 = CC(=O)N[C@H]1[C@H]([C@H](O)[C@H](O)CNC(=O)c2cc(C)c(O)c(C)c2)O[C@@](CCN2CCNC[C@@]23CCN(C(=O)OC(C)(C)C)C3)(C(=O)O)C[C@@H]1O
Req: List from greatest to least pEC50. List each label, following the requested order.
Resp: 5, 1, 3, 2, 4
(5: 7.66, 1: 6.33, 3: 5.96, 2: 5.40, 4: 5.00)

1 = CC(=O)N[C@H]1[C@H]([C@H](O)[C@H](O)CNC(=O)c2cc(C)c(O)c(C)c2)O[C@@](C/C=C/c2cnc(CNC(=O)C3CCCOC3)s2)(C(=O)O)C[C@@H]1O (stereo partly shown)
2 = CC(=O)N[C@H]1[C@H]([C@H](O)[C@H](O)CNC(=O)c2cc(C)c(O)c(C)c2)O[C@@](C/C=C/c2cccc(CNC(=O)c3ccc4[nH]cnc4c3)c2)(C(=O)O)C[C@@H]1O
Req: Lower value for measured pEC50? Options: 1 , 2 Pick one; state its label.
Resp: 1

I = Cc1cc2cc(C)c1OCCOC[C@@H](NC(=O)C1CCCOC1)COC/C=C/C[C@]1(C(=O)O)C[C@H](O)[C@@H](NC(=O)Cn3cc(C4CCCCC4)nn3)[C@@H](O1)[C@H](O)[C@H](O)CNC2=O (stereo partly shown) [A-338]
II = CC(=O)N[C@H]1[C@H]([C@H](O)[C@H](O)CNC(=O)c2cc(C)c(O)c(C)c2)O[C@@](CCN2CCOC[C@@]23CCN(C(=O)N[C@H](C)c2ccccc2)C3)(C(=O)O)C[C@@H]1O
Req: Form field 'greater pEC50' accepts I or II ; which applies? Pick one; state its label.
Resp: II
